method: mitochondrial membrane potential change in A549 cells, profiling panel, cell-based, JC-1 fluorescence, basal, 24 h, 100 nL (AID 1138);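 also: A549 lung adenocarcinoma cells under basal conditions with no added stimulus; test concentration not given here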
test parameters: higher = more signal
Overview of recorded z-score for various compounds
measurement type: z-score

[[record]]
compound = "CC(C)C[C@@H]1NC(=O)[C@H](CC(C)C)NC(=O)[C@@]23C(=O)N[C@@H](Cc4ccccc4)C2[C@H](C)[C@@]2(C)O[C@H]2C3/C=C/CC/C=C/CNC1=O (some centres not stated)"
value = 0.234

[[record]]
compound = "CO[C@@H]1COC(=O)[C@@H]2CCCN2C(=O)CC=C[C@@H](C)[C@H](OC)COC(=O)[C@@H]2CCCN2C(=O)CC=C[C@H]1C"
value = 1.01

[[record]]
compound = "COc1cccc([C@@H]2[C@@H](C)CC[C@H]3C(=O)N(C)[C@@H](C(C)C)C(=O)N23)c1"
value = 1.68

[[record]]
compound = "O=C1O[C@H](c2ccccc2)[C@H](c2ccccc2)N2[C@H]1[C@@H](C(=O)Nc1nc3ccccc3s1)[C@]1(C(=O)Nc3ccc(C#CC4(O)CCCCCC4)cc31)[C@H]2c1ccc(O)cc1"
value = -2.35

[[record]]
compound = "COc1ccc([Si](C)(C)[C@H]2[C@H](CCO)O[C@@]3(C(=O)N(Cc4ccc(N5CCCCC5=O)cc4)c4ccccc43)[C@@H]2C)cc1"
value = 1.33

[[record]]
compound = "CC(C)[Si](OCCCNS(=O)(=O)c1ccc(Br)cc1)(C(C)C)C(C)C"
value = -0.87

[[record]]
compound = "COCC(=C=CC[C@H](O)c1ccc(OCCO)cc1)C[C@H](O)c1ccccn1"
value = 1.92


Reference for the values: PubChem BioAssay
